# subject.of.test: UniProtKB P01375
# Sequence (P01375 77-233 limits assumed): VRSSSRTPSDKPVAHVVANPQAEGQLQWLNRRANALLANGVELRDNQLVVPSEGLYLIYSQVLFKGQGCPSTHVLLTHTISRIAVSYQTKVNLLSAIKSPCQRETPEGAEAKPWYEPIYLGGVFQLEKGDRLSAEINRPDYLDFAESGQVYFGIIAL
# run.description: TNF-Induced HEK-Blue Assay
# Format: cell-based
# measurement.setup: HEK-Blue-CD40L cells, NF-kB-driven secreted alkaline phosphatase reporter; TNFα 0.5 ng/ml; 18 h; read-out: TNF induced HEK-Blue assay IC50 value
Positions of bridges follow the written chain, without caps; N, C: chain ends. Non-standard residues stand in square brackets, D forms with d. Residues, ends and D or L forms follow the SMILES beside them. Bip(4'-COOH) = N[C@@H](Cc1ccc(-c2ccc(C(=O)O)cc2)cc1)C(=O)O; Bip(4'-NHAc) = CC(=O)Nc1ccc(-c2ccc(C[C@H](N)C(=O)O)cc2)cc1; Ala(morpholin-4-yl) = N[C@@H](CN1CCOCC1)C(=O)O; Phe(4-CH2NH2) = NCc1ccc(C[C@H](N)C(=O)O)cc1; Bip = N[C@@H](Cc1ccc(-c2ccccc2)cc1)C(=O)O; Phe(2-F) = N[C@@H](Cc1ccccc1F)C(=O)O; Val(3-OH) = CC(C)(O)[C@H](N)C(=O)O; h4Pal = N[C@@H](CCc1ccncc1)C(=O)O; Cha = N[C@@H](CC1CCCCC1)C(=O)O; Sar = CNCC(=O)O
value.kind: IC50

Look over these answered cases.
| molecule | value.kind | obs.value |
| --- | --- | --- |
| CC(=O)Nc1ccc(-c2ccc(C[C@@H]3NC(=O)[C@H](Cc4ccc(-c5ccccc5)cc4)NC(=O)[C@H](CC4CCCCC4)NC(=O)CSC[C@@H](C(=O)NCC(N)=O)NC(=O)[C@H](CC(C)C)NC(=O)[C@H](Cc4cnc[nH]4)NC(=O)[C@H](C(C)C)NC(=O)[C@@H]4CCCN4C(=O)[C@H](CC(N)=O)NC(=O)[C@@H](CCCNC(=N)N)NC(=O)[C@H](CC(=O)O)NC(=O)[C@@H]4CCCN4C(=O)CN(C)C3=O)cc2)cc1 [Example 253] ({CH2CO}-[Cha][Bip][Bip(4'-NHAc)][Sar]PD[dR]NPVHLCG-NH2; thioether N-13) | IC50 | 50 to 200 nM |
| CC(C)C[C@@H]1NC(=O)[C@H](Cc2ccccc2)NC(=O)[C@H](C(C)C)NC(=O)[C@@H]2CCCN2C(=O)[C@H](C(C)C)NC(=O)[C@@H](CCCNC(=N)N)NC(=O)[C@H](CC(=O)O)NC(=O)[C@H](Cc2cnc[nH]2)NC(=O)CN(C)C(=O)[C@H](Cc2ccc(-c3ccccc3)cc2)NC(=O)[C@H](Cc2ccc(-c3ccccc3)cc2)NC(=O)[C@H](CN2CCOCC2)NC(=O)CSC[C@@H](C(=O)NCC(N)=O)NC1=O [Example 231] ({CH2CO}-[Ala(morpholin-4-yl)][Bip][Bip][Sar]HD[dR]VPVFLCG-NH2; thioether N-13) | IC50 | 50 to 200 nM |
| CC(C)C[C@@H]1NC(=O)[C@H](CCCNC(=N)N)NC(=O)[C@H](C(C)C)NC(=O)[C@@H]2CCCN2C(=O)[C@H](Cc2ccc(CN)cc2)NC(=O)[C@H](CCCNC(=N)N)NC(=O)[C@H](CC(=O)O)NC(=O)[C@@H]2CCCN2C(=O)CN(C)C(=O)[C@H](Cc2ccc(-c3ccccc3)cc2)NC(=O)[C@H](Cc2ccc(-c3ccccc3)cc2)NC(=O)[C@H](C(C)(C)O)NC(=O)CSC[C@@H](C(=O)NCC(N)=O)NC1=O [Example 57] ({CH2CO}-[Val(3-OH)][Bip][Bip][Sar]PDR[Phe(4-CH2NH2)]PVRLCG-NH2; thioether N-13) | IC50 | 50 to 200 nM |
| CC(C)C[C@@H]1NC(=O)[C@H](Cc2ccc(O)cc2)NC(=O)[C@H](C(C)C)NC(=O)[C@@H]2CCCN2C(=O)[C@H](C(C)C)NC(=O)[C@@H](CCCNC(=N)N)NC(=O)[C@H](CC(=O)O)NC(=O)[C@H](Cc2ccc(O)cc2)NC(=O)CN(C)C(=O)[C@H](Cc2ccc(-c3ccccc3)cc2)NC(=O)[C@H](Cc2ccc(-c3ccc(C(=O)O)cc3)cc2)NC(=O)[C@H](CCc2ccncc2)NC(=O)CSC[C@@H](C(=O)NCC(N)=O)NC1=O [Example 186] ({CH2CO}-[h4Pal][Bip(4'-COOH)][Bip][Sar]YD[dR]VPVYLCG-NH2; thioether N-13) | IC50 | 50 to 200 nM |

Fill in IC50 for each of the 4 molecules listed.
1. CC(=O)Nc1ccc(-c2ccc(C[C@@H]3NC(=O)[C@H](Cc4ccc(-c5ccccc5)cc4)NC(=O)[C@H](Cc4ccccc4)NC(=O)CSC[C@@H](C(=O)NCC(N)=O)NC(=O)[C@H](CC(C)C)NC(=O)[C@H](CCCNC(=N)N)NC(=O)[C@H](C(C)C)NC(=O)[C@@H]4CCCN4C(=O)[C@H](C(C)C)NC(=O)[C@H](CCCNC(=N)N)NC(=O)[C@H](CC(=O)O)NC(=O)[C@@H]4CCCN4C(=O)CN(C)C3=O)cc2)cc1 [Example 37] ({CH2CO}-F[Bip][Bip(4'-NHAc)][Sar]PDRVPVRLCG-NH2; thioether N-13)
2. CC(C)C[C@@H]1NC(=O)[C@H](Cc2ccc(O)cc2)NC(=O)[C@H](C(C)C)NC(=O)[C@@H]2CCCN2C(=O)[C@H](C(C)C)NC(=O)[C@H](CCCNC(=N)N)NC(=O)[C@H](CC(=O)O)NC(=O)[C@H](Cc2ccc(O)cc2)NC(=O)CN(C)C(=O)[C@H](Cc2ccc(-c3ccccc3)cc2)NC(=O)[C@H](Cc2ccc(-c3ccccc3)cc2)NC(=O)[C@H](CN2CCOCC2)NC(=O)CSC[C@@H](C(=O)NCC(N)=O)NC1=O [Example 48] ({CH2CO}-[Ala(morpholin-4-yl)][Bip][Bip][Sar]YDRVPVYLCG-NH2; thioether N-13)
3. CC[C@H](C)[C@@H]1NC(=O)CSC[C@@H](C(=O)NCC(N)=O)NC(=O)[C@H](CC(C)C)NC(=O)[C@H](Cc2ccc(O)cc2)NC(=O)[C@H](C(C)C)NC(=O)[C@@H]2CCCN2C(=O)[C@H](C(C)C)NC(=O)[C@@H](CCCNC(=N)N)NC(=O)[C@H](CC(=O)O)NC(=O)[C@H](Cc2ccc(O)cc2)NC(=O)CN(C)C(=O)[C@H](Cc2ccc(-c3ccccc3)cc2)NC(=O)[C@H](Cc2ccc(-c3ccc(C(=O)O)cc3)cc2)NC1=O [Example 188] ({CH2CO}-I[Bip(4'-COOH)][Bip][Sar]YD[dR]VPVYLCG-NH2; thioether N-13)
4. CC(C)C[C@@H]1NC(=O)[C@H](CCCNC(=N)N)NC(=O)[C@H](C(C)C)NC(=O)[C@@H]2CCCN2C(=O)[C@H](Cc2ccccc2F)NC(=O)[C@H](CCCNC(=N)N)NC(=O)[C@H](CC(=O)O)NC(=O)[C@@H]2CCCN2C(=O)CN(C)C(=O)[C@H](Cc2ccc(-c3ccccc3)cc2)NC(=O)[C@H](Cc2ccc(-c3ccccc3)cc2)NC(=O)[C@H](C(C)(C)O)NC(=O)CSC[C@@H](C(=O)NCC(N)=O)NC1=O [Example 59] ({CH2CO}-[Val(3-OH)][Bip][Bip][Sar]PDR[Phe(2-F)]PVRLCG-NH2; thioether N-13)

Reply |
["200 to 2000 nM", "200 to 2000 nM", "< 50 nM", "200 to 2000 nM"]

FYI, the data here is from patent US20250145665A1.
